ASSAY_NAME: Cytotoxicity against human Huh-7 cells assessed as reduction in cell viability incubated for 48 hrs by MTS assay
Type: toxicity, cell-based
We begin with a simple list: items and their reported CC50 at 48 h.
Answer in µM, number only, no unit symbol.

CC1(C)CCC[C@@]2(C)[C@H]1CC[C@]1(O)COC(O)([C@@H](O)CC(=O)O)C[C@@H]12 (some centres not stated) = 223
CC1(C)CCC[C@@]2(C)[C@H]1CC[C@]13COC4(CC(=O)O[C@H]4O)[C@H](C[C@@H]12)O3 (some centres not stated) = 435
CCC(CC)COC(=O)[C@H](C)N[P@](=O)(OC[C@H]1O[C@@](C#N)(c2ccc3c(N)ncnn23)[C@H](O)[C@@H]1O)Oc1ccccc1 = 90
CC1(C)CCC[C@@]2(C)[C@H]1CC[C@]13CO[C@@H]4OC(=O)C=C4[C@H](C[C@@H]12)O3 = 215
CC(=O)OC[C@@]12CC[C@H]3C(C)(C)CCC[C@]3(C)[C@H]1C[C@@H](C1=CC(=O)OC1O)O2 (some centres not stated) = 14

## Input # query: CC50 at 48 h of entry CC1(C)CCC[C@@]2(C)[C@H]1CC[C@]1(CO)O[C@H](C3=CC(=O)OC3O)C[C@@H]12 (some centres not stated)
## Output 172

## Input # query: CC50 at 48 h of entry CC1(C)CCC[C@@]2(C)[C@H]1CC[C@@]1(CO)O[C@H](C3=CC(=O)OC3O)C[C@@H]12 (some centres not stated)
## Output 46.9
